- EXPERIMENTAL_SYSTEM: T1, human LAG-3 protein with hFc tag (hLAG-3-hFc protein) (human, UniProt P18627 23-450)
- T1 construct: also called immunogen 1; LAG-3 extracellular domain protein; not shown: human IgG Fc fragment (hFc) of the pCpC vector
- T1 sequence: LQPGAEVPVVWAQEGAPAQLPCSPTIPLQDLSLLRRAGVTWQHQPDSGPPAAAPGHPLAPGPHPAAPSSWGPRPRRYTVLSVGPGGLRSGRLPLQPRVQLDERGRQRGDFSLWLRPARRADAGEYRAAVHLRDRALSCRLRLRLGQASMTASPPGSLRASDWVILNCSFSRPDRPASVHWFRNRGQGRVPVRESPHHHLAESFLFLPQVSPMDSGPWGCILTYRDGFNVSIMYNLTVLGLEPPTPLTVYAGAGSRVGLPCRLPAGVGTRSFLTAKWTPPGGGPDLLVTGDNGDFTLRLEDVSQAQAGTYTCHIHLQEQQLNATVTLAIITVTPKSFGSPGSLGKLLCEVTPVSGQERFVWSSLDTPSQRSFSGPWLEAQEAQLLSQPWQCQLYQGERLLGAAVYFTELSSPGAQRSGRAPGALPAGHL
- MEASUREMENT_NOTES: ELISA, hLAG-3-hFc coated; 0.0000 nM
Task for the reader: assign each of the following binders its reported OD450.
Please respond with the number in OD450 and leave the unit unwritten.

Query: # query: OD450 of entry 405B8H3 (LAG-3 mouse-human chimeric antibody) (antibody, V domains shown, also called mouse-human chimeric antibody 405B8H3) VH: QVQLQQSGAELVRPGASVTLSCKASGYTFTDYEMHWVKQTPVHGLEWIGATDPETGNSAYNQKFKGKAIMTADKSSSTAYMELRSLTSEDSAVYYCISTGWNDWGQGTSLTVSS VL: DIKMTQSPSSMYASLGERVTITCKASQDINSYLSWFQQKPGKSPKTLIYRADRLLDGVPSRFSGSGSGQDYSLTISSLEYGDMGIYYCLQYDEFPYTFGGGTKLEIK
Response: 0.12

Query: # query: OD450 of entry 409B11E12 (LAG-3 mouse-human chimeric antibody) (antibody, V domains shown) VH: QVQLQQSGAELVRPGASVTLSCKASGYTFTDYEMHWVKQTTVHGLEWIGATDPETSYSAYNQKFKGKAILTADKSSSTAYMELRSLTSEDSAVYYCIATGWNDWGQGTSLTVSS VL: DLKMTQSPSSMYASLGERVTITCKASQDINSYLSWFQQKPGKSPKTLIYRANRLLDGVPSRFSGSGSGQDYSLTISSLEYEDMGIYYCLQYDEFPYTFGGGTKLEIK
Response: 0.13
